- Tested on: DU-145 prostate
- testProtocol: NCI-60 one-dose screen, 48 h
- details: 10 µM unless noted
About 83,000 compounds went through this panel and 20% of them were active in at least one assay; those are over-represented in the sample as a whole. Active and inactive are the calls of the source. The calls were made as follows: active = growth percent below 10; inactive = the rest.
Choose the fitting class; nothing outside active, inactive is accepted.

[[record]]
samplesmiles = "Cc1cc2nc3c4cc(C#N)ccc4n(CCN(C)C)c3nc2cc1C"
labelclass = "active"

[[record]]
samplesmiles = "O=C1Nc2ccc(F)cc2/C1=C\\C(=O)c1ccc(NS(=O)(=O)c2ccccc2)cc1"
labelclass = "inactive"

[[record]]
samplesmiles = "C/C(=C(\\c1ccc(O)cc1)c1ccc(OCCN2CCCCCC2)cc1)c1ccc(Cl)cc1"
labelclass = "active"

[[record]]
samplesmiles = "O=C1[C@@H]2Cc3c([nH]c4ccccc34)[C@H](c3ccc(Cl)cc3)N2C(=O)CN1C1CCN(Cc2ccccc2)CC1"
labelclass = "inactive"

[[record]]
samplesmiles = "COc1ccc2[nH]cc(-c3nc(N)nnc3-c3cn(C)c4ccc(Br)cc34)c2c1"
labelclass = "inactive"

[[record]]
samplesmiles = "Cc1cc(C)cc(NC2=C(Cl)C(=O)c3nc(C)ccc3C2=O)c1"
labelclass = "active"


[Q] So what was the verdict on `COc1ccc2sc(NC(=O)CCCCCCNC(=O)C(O)(O)C(F)(F)F)nc2c1` in this test?
[A] active

[Q] So what was the verdict on `CCCN1C=C/C(=C\C(=O)n2ccc3ccccc32)c2ccccc21` in this test?
[A] inactive

[Q] So what was the verdict on `CN1CCN(Cc2ccc(NC(=O)c3cncc(C#Cc4cnc5ccc(N6CCOCC6)nn45)c3)cc2C(F)(F)F)CC1` in this test?
[A] active

[Q] So what was the verdict on `N#Cc1cnc2ccc(-c3cnc4n[nH]nc4c3)cc2c1N1CCc2cc(F)c(Cl)cc21` in this test?
[A] inactive

[Q] So what was the verdict on `Cc1ccc2c(n1)C(=O)C(Cl)=C(Nc1ccc(C(F)(F)F)cc1)C2=O` in this test?
[A] inactive

[Q] So what was the verdict on `Cn1c(SCC(=O)c2ccc(Br)cc2)nc2ccccc2c1=O` in this test?
[A] inactive
